Each item that follows carries a reported % peptide remaining after 4 h with chymotrypsin.

CCCC[C@@H]1NC(=O)[C@H](CCCNC(=N)N)NC(=O)[C@H](C)NC(=O)[C@H](Cc2ccc(O)cc2)NC(=O)[C@@](C)(NC(=O)[C@H](CCCCN)NC(=O)[C@H](C)NC(=O)CCCCCNC(=S)Nc2ccc3c(c2)C(=O)OC32c3ccc(O)cc3Oc3cc(O)ccc32)CCCCCC#CC#CCCCCC[C@@](C)(C(=O)N[C@@H](CC(C)C)C(=O)N[C@@H](CCCCN)C(=O)N[C@@H](CCC(=O)O)C(=O)N[C@H](C(=O)N[C@@H](C)C(=O)N[C@@H](CCCCN)C(N)=O)[C@@H](C)CC)NC(=O)[C@H](CCCNC(=N)N)NC(=O)CNC1=O = > 92%

Now for another entry.
Exam item: Find the measured % peptide remaining after 4 h with chymotrypsin of CCCC[C@@H]1NC(=O)[C@H](CCCNC(=N)N)NC(=O)[C@H](C)NC(=O)[C@H](Cc2ccc(O)cc2)NC(=O)[C@@H](NC(=O)[C@H](CCCCN)NC(=O)[C@H](C)NC(=O)CCCCCNC(=S)Nc2ccc3c(c2)C(=O)OC32c3ccc(O)cc3Oc3cc(O)ccc32)CCCCCC#CC#CCCCCC[C@@H](C(=O)N[C@@H](CC(C)C)C(=O)N[C@@H](CCCCN)C(=O)N[C@@H](CCC(=O)O)C(=O)N[C@H](C(=O)N[C@@H](C)C(=O)N[C@@H](CCCCN)C(N)=O)[C@@H](C)CC)NC(=O)[C@H](CCCNC(=N)N)NC(=O)CNC1=O and report it.
Marked response: > 92%
